experiment: In vivo PK study in Lewis female rats; details: rat, po 0.3 mg/kg, plasma
outcome_measure: Cmax (nM)
// note: answer is a bare numeric in nM

Prompt line: Tell me the measured Cmax of "CC(C)[C@H](NC(=O)C(C)(F)F)[C@H](Oc1ccc2c(cnn2-c2ccc3nncn3c2)c1)c1ccccc1" , please.
Response line: 361

* * *

assay: In vivo PK study in Lewis female rats; conditions: rat, po 0.3 mg/kg, plasma
outcome_measure: half-life

Prompt line: Tell me the measured half-life of "CC(C)[C@H](NC(=O)C(C)(F)F)[C@H](Oc1ccc2c(cnn2-c2ccc3nncn3c2)c1)c1ccccc1" , please.
Response line: 214 min

* * *

experiment: In vivo PK study in Lewis female rats; conditions: rat, po 0.3 mg/kg, plasma
outcome_measure: AUC

Prompt line: Tell me the measured AUC of "CC(C)[C@H](NC(=O)C(C)(F)F)[C@H](Oc1ccc2c(cnn2-c2ccc3nncn3c2)c1)c1ccccc1" , please.
Response line: 3.15 µM·h
